Examples of molecules with documented AUC(0-inf) follow.
Assay: Pharmacokinetic study in rats after oral administration of QSG
Conditions: Sprague Dawley, rat, plasma, po, 7 g/kg, AUC0→∞, rat plasma, single oral 7 g/kg QSG, n = 6
// return numeric value only (unit: ng·h/mL, not printed)

For orientation, consider the following solved cases.
O=c1cc(-c2ccc(O)c(O)c2)oc2cc(O)cc(O)c12; 10.9
O=C(/C=C/c1ccc(O)cc1)c1ccc(O)cc1O; 4.89
O=C(/C=C/c1ccc(O)c(O)c1)O[C@@H]1C[C@](O)(C(=O)O)C[C@@H](O)[C@H]1O; 1420

Now look at this one.
Given the molecule COc1ccc(-c2coc3cc(O)ccc3c2=O)cc1 , what is its reported AUC(0-inf)?
27.7

----------
Examples of compounds with documented concentration at 1 h follow.
Assay: Concentrations of 24 analytes in QSG treated plasma (Table S5)
Conditions: Sprague Dawley, rat, plasma, oral, 7 g/kg
// return numeric value only (unit: ng/mL, not printed)

For orientation, consider the following solved cases.
COc1ccc(-c2coc3cc(O)ccc3c2=O)cc1O; 1.7
COc1ccc(-c2coc3cc(O)ccc3c2=O)cc1; 2.77
O=C(/C=C/c1ccc(O)c(O)c1)O[C@@H]1C[C@](O)(C(=O)O)C[C@@H](O)[C@H]1O; 170
COC(=O)C1=CO[C@@H](O[C@@H]2O[C@H](CO)[C@@H](O)[C@H](O)[C@H]2O)[C@@H]2[C@H](C)O[C@@H](O)C[C@H]12 [Morroniside]; 2.4
COC(=O)C1=CO[C@@H](O[C@@H]2O[C@H](CO)[C@@H](O)[C@H](O)[C@H]2O)[C@@H]2[C@@H](C)[C@H](O)C[C@H]12 [7-epi-loganin]; 1.5

Given the compound O=C1C[C@@H](c2ccc(O[C@@H]3O[C@H](CO)[C@@H](O)[C@H](O)[C@H]3O)cc2)Oc2cc(O)ccc21 , what is its reported concentration at 1 h?
17.8

Next compound up: O=C(/C=C/c1ccc(O)cc1)c1ccc(O)cc1O
0.355

Next compound up: O=c1cc(-c2ccc(O)c(O)c2)oc2cc(O)cc(O)c12
2.41

----------
Assay: Pharmacokinetic study in rats after oral administration of QSG
Details: rat plasma, single oral 7 g/kg QSG, n = 6
Examples of molecules with documented Cmax follow.
// return numeric value only (unit: ng/mL, not printed)

For orientation, consider the following solved cases.
O=C(/C=C/c1ccc(O)c(O)c1)O[C@H]1[C@H](O)C[C@](O)(C(=O)O)C[C@H]1O; 184.1
O=C(/C=C/c1ccc(O)c(O)c1)O[C@@H]1C[C@@](O)(C(=O)O)C[C@@H](O)[C@@H]1O; 68.12
CC(C)(O)[C@@H]1CC[C@](C)([C@H]2[C@@H](O)C[C@@]3(C)[C@@H]4C[C@H](O[C@@H]5O[C@H](CO)[C@@H](O)[C@H](O)[C@H]5O)[C@H]5C(C)(C)[C@@H](O[C@@H]6OC[C@@H](O)[C@H](O)[C@H]6O)CC[C@@]56C[C@@]46CC[C@]23C)O1 [Astragaloside IV]; 12.06

Given the molecule O=C(/C=C/c1ccc(O)c(O)c1)O[C@H]1[C@H](O)C[C@](O)(C(=O)O)C[C@H]1OC(=O)/C=C/c1ccc(O)c(O)c1 , what is its reported Cmax?
33.95

Next molecule up: O=C(/C=C/c1ccc(O)c(O)c1)O[C@@H]1C[C@](O)(C(=O)O)C[C@@H](O)[C@H]1O
394.1

----------
Test: Pharmacokinetic study in rats after oral administration of QSG
Conditions: rat plasma, single oral 7 g/kg QSG, n = 6
Rule: class 1 for AUC0→t not less than 200 ng·h/mL, class 0 for anything less.

These solved cases illustrate the format of a correct answer.
O=C(/C=C/c1ccc(O)c(O)c1)O[C@H]1[C@H](O)C[C@](O)(C(=O)O)C[C@H]1OC(=O)/C=C/c1ccc(O)c(O)c1; class 0
CC(C)(O)[C@@H]1CC[C@](C)([C@H]2[C@@H](O)C[C@@]3(C)[C@@H]4C[C@H](O[C@@H]5O[C@H](CO)[C@@H](O)[C@H](O)[C@H]5O)[C@H]5C(C)(C)[C@@H](O[C@@H]6OC[C@@H](O)[C@H](O)[C@H]6O)CC[C@@]56C[C@@]46CC[C@]23C)O1 [Astragaloside IV]; class 0

Does AUC0→t meet or surpass 200 ng·h/mL for O=C(/C=C/c1ccc(O)c(O)c1)O[C@@H]1C[C@@](O)(C(=O)O)C[C@@H](O)[C@@H]1O ?
class 0

Next compound up: O=C(/C=C/c1ccc(O)c(O)c1)O[C@H]1[C@H](O)C[C@](O)(C(=O)O)C[C@H]1O
class 1

Next compound up: O=C(/C=C/c1ccc(O)c(O)c1)O[C@@H]1C[C@](O)(C(=O)O)C[C@@H](O)[C@H]1O
class 1

----------
Tested on: H9c2 cells
Experiment: Cytotoxicity on H9c2 cells (CCK-8)
Assay type: cell-based, rat
Conditions: 50 μM, H9c2 cells, n=3
Examples of compounds with documented Inhibition rate follow.
// return numeric value only (unit: %, not printed)

Given the compound O=C(/C=C/c1ccc(O)c(O)c1)O[C@H]1[C@H](O)C[C@](O)(C(=O)O)C[C@H]1O [Cryptochlorogenic acid] , what is its reported Inhibition rate?
-3.4

----------
Examples of molecules with documented concentration at 0.5 h follow.
Test: Concentrations of 24 analytes in QSG treated plasma (Table S5)
Conditions: Sprague Dawley, rat, in vivo, 7 g/kg
// return numeric value only (unit: ng/mL, not printed)

O=C(/C=C/c1ccc(O[C@@H]2O[C@H](CO)[C@@H](O)[C@H](O)[C@H]2O)cc1)c1ccc(O)cc1O; 2.54

Now look at this one.
Given the molecule COC[C@@]12CC[C@H](OC)[C@]34C(C([C@H](OC)[C@H]13)[C@]1(OC(C)=O)[C@H]3[C@@H](OC(=O)c5ccccc5)[C@](O)(C[C@H]34)[C@@H](OC)[C@@H]1O)N(C)C2 , what is its reported concentration at 0.5 h?
0.308

----------
Test system: H9c2 cells
Experiment: Cytotoxicity on H9c2 cells (CCK-8)
Type: cell-based, rat
Settings: 25 μM, H9c2 cells, n=3
Experimental: Rat myocardial H9c2 cells (purchased from China Infrastructure of Cell Line Resources, Institute of Basic Medical Sciences, Chinese Academy of Medical Sciences) were cultured in DMEM supplemented with 10% fetal bovine serum (FBS), Penicillin (100 U/mL), and Streptomycin (100 μg/mL) at 37 °C under a humidified atmosphere of 5% CO2 and 95% air. […] Finally, the absorbance at 450 nm was detected by a microplate reader (Model […] 200 PRO, TECAN, Grodig, Austria). […]
Examples of compounds with documented Inhibition rate follow.
// return numeric value only (unit: %, not printed)

For orientation, consider the following solved cases.
O=C1C[C@@H](c2ccc(O)cc2)Oc2cc(O)ccc21; -4.4
C=C[C@H]1[C@H](O[C@@H]2O[C@H](CO)[C@@H](O)[C@H](O)[C@H]2O)OC=C(C(=O)O)[C@H]1CC(=O)O [Secologanoside]; -15.6
O=C(/C=C/c1ccc(O)c(O)c1)O[C@@H]1C[C@@](O)(C(=O)O)C[C@@H](O)[C@@H]1O; -12.8

Now look at this one.
Fill in the recorded Inhibition rate for this compound, with H9c2 cells as test system: COc1ccc(-c2coc3cc(O[C@@H]4O[C@H](CO)[C@@H](O)[C@H](O)[C@H]4O)ccc3c2=O)cc1 [Formononetin-7-O-glucoside, Formononetin-7-O-D-glucoside]
0.8

----------
Assay: Concentrations of 24 analytes in QSG treated plasma (Table S5)
Details: QSG treated plasma, 8 h, n = 5
Threshold 2 ng/mL. Concentration below it: TRUE. Concentration at it or above: FALSE.

COc1ccc(-c2coc3cc(O[C@@H]4O[C@H](CO)[C@@H](O)[C@H](O)[C@H]4O)ccc3c2=O)cc1O [Calycosin-7-O-glucoside, Calycosin-7-O-D-glucoside]; TRUE

For O=C1C[C@@H](c2ccc(O)cc2)Oc2cc(O)ccc21 , is the recorded Concentration below the cut-off of 2 ng/mL?
FALSE

----------
Examples of compounds with documented AUC0→∞ follow.
Test: Pharmacokinetic study in rats after oral administration of QSG
Conditions: Table S12, rats, oral QSG
// return numeric value only (unit: ng·h/mL, not printed)

O=C(/C=C/c1ccc(O)c(O)c1)O[C@H]1[C@H](O)C[C@](O)(C(=O)O)C[C@H]1O; 576.2
O=C(/C=C/c1ccc(O)c(O)c1)O[C@H]1[C@H](O)C[C@](O)(C(=O)O)C[C@H]1OC(=O)/C=C/c1ccc(O)c(O)c1; 170.5
CC(C)(O)[C@@H]1CC[C@](C)([C@H]2[C@@H](O)C[C@@]3(C)[C@@H]4C[C@H](O[C@@H]5O[C@H](CO)[C@@H](O)[C@H](O)[C@H]5O)[C@H]5C(C)(C)[C@@H](O[C@@H]6OC[C@@H](O)[C@H](O)[C@H]6O)CC[C@@]56C[C@@]46CC[C@]23C)O1 [Astragaloside IV]; 144.9

Given the compound O=C(/C=C/c1ccc(O)c(O)c1)O[C@@H]1C[C@@](O)(C(=O)O)C[C@@H](O)[C@@H]1O , what is its reported AUC0→∞?
1418
